- assay.system: soybean LOX type 1b (sLOX-1) (Glycine max, UniProt P08170)
- Sequence (P08170 whole entry): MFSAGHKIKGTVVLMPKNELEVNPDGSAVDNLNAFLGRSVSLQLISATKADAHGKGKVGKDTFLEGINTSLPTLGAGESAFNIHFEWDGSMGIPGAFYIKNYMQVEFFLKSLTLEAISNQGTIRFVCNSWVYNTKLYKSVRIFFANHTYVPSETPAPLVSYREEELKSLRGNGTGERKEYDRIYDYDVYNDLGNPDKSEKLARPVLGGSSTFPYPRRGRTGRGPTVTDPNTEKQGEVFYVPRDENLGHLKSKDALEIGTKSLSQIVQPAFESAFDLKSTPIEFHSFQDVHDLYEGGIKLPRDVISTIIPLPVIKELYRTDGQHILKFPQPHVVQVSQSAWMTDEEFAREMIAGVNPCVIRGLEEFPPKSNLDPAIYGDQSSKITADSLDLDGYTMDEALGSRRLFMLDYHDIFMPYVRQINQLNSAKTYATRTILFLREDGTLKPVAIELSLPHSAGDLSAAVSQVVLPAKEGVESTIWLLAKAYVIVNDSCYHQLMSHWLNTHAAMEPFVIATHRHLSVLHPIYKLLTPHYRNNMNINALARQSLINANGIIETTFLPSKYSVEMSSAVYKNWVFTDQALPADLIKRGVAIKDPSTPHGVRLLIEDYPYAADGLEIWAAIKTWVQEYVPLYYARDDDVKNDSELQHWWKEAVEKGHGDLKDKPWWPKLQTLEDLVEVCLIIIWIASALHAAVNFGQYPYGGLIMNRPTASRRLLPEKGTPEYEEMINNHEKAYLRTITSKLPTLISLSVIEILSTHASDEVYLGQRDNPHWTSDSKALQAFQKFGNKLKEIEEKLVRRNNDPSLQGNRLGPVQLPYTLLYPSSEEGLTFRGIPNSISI
- run.description: Soybean lipoxygenase inhibition study in vitro
- Format: biochemical
- experimental.parameters: printed as negative values (−log of IC50 in µM); read-out: pIC50 (converted)
Attribute: log10 of IC50
measured.parameter: log10 of IC50 (log10 of the value in µM)

In [3]: df
Out[3]:
                                   compound                              assay_system   val
0  COc1c(C)c2c(c(O)c1C/C=C(\C)CCC(=O)Nc1nccs1)C(=O)OC2 [Compound 1]  soybean LOX type 1b (sLOX-1) (Glycine max, UniProt P08170)  1.42
1  COc1c(C)c2c(c(O)c1C/C=C(\C)CCC(=O)Nc1nc(C)cs1)C(=O)OC2 [Compound 4]  soybean LOX type 1b (sLOX-1) (Glycine max, UniProt P08170)  1.50
2  COc1c(C)c2c(c(O)c1C/C=C(\C)CCC(=O)Nc1nc(-c3ccncc3)cs1)C(=O)OC2 [Compound 7]  soybean LOX type 1b (sLOX-1) (Glycine max, UniProt P08170)  1.90
3  COc1c(C)c2c(c(O)c1C/C=C(\C)CCC(=O)Nc1nc(C)c(C)s1)C(=O)OC2 [Compound 3]  soybean LOX type 1b (sLOX-1) (Glycine max, UniProt P08170)  1.64
4  COc1c(C)c2c(c(O)c1C/C=C(\C)CCC(=O)Nc1nc(-c3cccnc3)cs1)C(=O)OC2 [Compound 8]  soybean LOX type 1b (sLOX-1) (Glycine max, UniProt P08170)  1.95
5  COc1ccc2nc(NC(=O)CC/C(C)=C/Cc3c(O)c4c(c(C)c3OC)COC4=O)sc2c1 [Compound 11]  soybean LOX type 1b (sLOX-1) (Glycine max, UniProt P08170)  2.19
6  COc1c(C)c2c(c(O)c1C/C=C(\C)CCC(=O)Nc1nc3ccccc3s1)C(=O)OC2 [Compound 10]  soybean LOX type 1b (sLOX-1) (Glycine max, UniProt P08170)  1.95
7  COc1c(C)c2c(c(O)c1C/C=C(\C)CCC(=O)Nc1ncc(C)s1)C(=O)OC2 [Compound 2]  soybean LOX type 1b (sLOX-1) (Glycine max, UniProt P08170)  1.35
8  COc1c(C)c2c(c(O)c1C/C=C(\C)CCC(=O)Nc1nc(-c3ccccn3)cs1)C(=O)OC2 [Compound 9]  soybean LOX type 1b (sLOX-1) (Glycine max, UniProt P08170)  0.40
9  CCOC(=O)Cc1csc(NC(=O)CC/C(C)=C/Cc2c(O)c3c(c(C)c2OC)COC3=O)n1 [Compound 6]  soybean LOX type 1b (sLOX-1) (Glycine max, UniProt P08170)  1.48

* * *

- assay.system: soybean LOX type 1b (sLOX-1) (Glycine max)
- run.description: Soybean lipoxygenase inhibition study in vitro
- Assay type: biochemical
- experimental.parameters: Table 6, unit inferred; same values as Table 5; read-out: IC50
Attribute: IC50
measured.parameter: IC50 (µM)

In [3]: df
Out[3]:
                                   compound  unit_name   val
0  COc1c(C)c2c(c(O)c1C/C=C(\C)CCC(=O)Nc1nc(-c3cccnc3)cs1)C(=O)OC2 [Compound 8]         µM    90
1  COc1c(C)c2c(c(O)c1C/C=C(\C)CCC(=O)Nc1nc(C)cs1)C(=O)OC2 [Compound 4]         µM  31.2
2  COc1ccc2nc(NC(=O)CC/C(C)=C/Cc3c(O)c4c(c(C)c3OC)COC4=O)sc2c1 [Compound 11]         µM   156
3  COc1c(C)c2c(c(O)c1C/C=C(\C)CCC(=O)Nc1nc(-c3ccccn3)cs1)C(=O)OC2 [Compound 9]         µM   2.5
4  COc1c(C)c2c(c(O)c1C/C=C(\C)CCC(=O)Nc1ncc(C)s1)C(=O)OC2 [Compound 2]         µM  22.5
5  CCOC(=O)c1sc(NC(=O)CC/C(C)=C/Cc2c(O)c3c(c(C)c2OC)COC3=O)nc1C [Compound 5]         µM  22.5

Hey, just so you know, these numbers are from paper PMC6099768.
